Provenance of the data: PubChem BioAssay (NCI)

System: A549/ATCC NSCLC
methodSummary: NCI-60 one-dose screen, 48 h (100 = growth as untreated, 0 = no growth, -100 = all killed)
testSettings: 10 µM unless noted
About 83,000 compounds went through this panel and 20% of them were active in at least one assay; those are over-represented in the sample as a whole.
Measured growth, listed per entry for reference.
Response body: numeric value in %, unit text excluded.

Prompt: What is its growth for A549/ATCC NSCLC? Entry: COc1cc(-c2nn(C(C)(C)C)cc2-c2ccnc(NCCCNS(=O)(=O)c3ccc(Cl)cc3)n2)ccc1Cl
Completion: 36.3

Prompt: Also check O=S(=O)(Nc1cccc2ccccc12)c1ccc(-c2cnc(C3CC3)o2)cc1
Completion: 27.2

Prompt: Then this compound: COc1ccc([C@@H]2c3[nH]c4ccccc4c3C[C@H]3C(=O)N(C4CCN(CC5CCCCC5)CC4)CC(=O)N23)c(OC)c1
Completion: 72.2

Prompt: Queued: O=C1CCCC2=C1C(c1c[nH]c3ccc(Br)cc13)Cc1cc(Br)ccc1N2 (centres undefined)
Completion: 43.7

Prompt: Cool, now CC1=NC2=NC(=O)/C(=C3/N=C(C)C=C(c4ccccc4)N3N)NN2C(c2ccccc2)=C1
Completion: 109

Prompt: Item: COc1cc(-c2nn(C(C)(C)C)cc2-c2ccnc(NCCCNS(=O)(=O)c3ccc(F)cc3)n2)ccc1Cl
Completion: 50.2

Prompt: Further, for C#CCOc1ccc(/C=N\Nc2nc(-c3ccc(C)cc3)cs2)cc1OC ?
Completion: 88.6

Prompt: Moving on to the next compound: Cc1cccc2c3c(sc12)C(c1ccc(Cl)cc1)c1c(nc(CC(=O)Nc2ccccc2)[nH]c1=O)O3 (centres undefined)
Completion: 62.6

Prompt: Record: CN(C)C(=O)c1cc(-c2ccc3ncnc(NCc4ccccc4)c3c2)cnc1N
Completion: 72.9

###

Tested on: DU-145 prostate
methodSummary: NCI-60 one-dose screen, 48 h (100 = growth as untreated, 0 = no growth, -100 = all killed)
testSettings: 10 µM unless noted
Description: Cells are grown in 96 well plates and exposed to the test compound for 48 hours. Compounds are tested at a single concentration, which is 10^-5 M for most compounds. The reported endpoint is percent growth (GI% or GIPRCNT), where numbers from 0 - 100% represent growth inhibition, and numbers from -100% - 0 represent cell death. For example, a value of 40 represents 60% growth inhibition. A value of 0 means no net growth occurred over the course of the experiment. […]
The panel holds about 83,000 compounds, 20% with a hit somewhere; the sample as a whole holds those more often.
Below, each entry is listed with its recorded growth.
Use % as the unit, but write only the number.

Some compounds with known growth results, for comparison:
> print(dat)
                                   compound     systemtested  reportedmetric  numericresult
1  NC(=O)c1cccc(C#CCNC[C@H]2C[C@@H](n3ccc4c(Cl)ncnc43)[C@H](O)[C@@H]2O)c1  DU-145 prostate          growth            108
2  Cc1ccc2c(c1)Oc1nc(N)c(C#N)c(N)c1C2Sc1ccc(F)cc1 (centres undefined)  DU-145 prostate          growth          -98.9
3    COc1ccc(C(=O)Nc2ncc(Cc3ccccc3Cl)s2)cc1  DU-145 prostate          growth           18.2
4  N#Cc1c(Nc2ccccc2)nn2c(-c3ccc([N+](=O)[O-])cc3)ccnc12  DU-145 prostate          growth            109
5  Oc1ccc(CSc2nnc(-c3ccc(Cl)cc3)n2-c2ccccc2)c2cccnc12  DU-145 prostate          growth           38.8

Prompt: Please give the measured growth for this compound: O=C(O)c1cn(C2CC2)c2cc(N3CCN(C(=O)CN4C(=O)CSC4=O)CC3)c(F)cc2c1=O
Completion: 90.5

Prompt: Thanks! And CS(=O)(=O)Nc1cc(-c2ccc3ncc(C#N)c(NCc4ccccc4F)c3c2)cnc1Cl ?
Completion: 19

Prompt: And for Cc1occc1-c1nc2s/c(=C/c3ccc(-c4cc(C(F)(F)F)ccc4Cl)o3)c(=O)n2n1 ?
Completion: 103

Prompt: Follow-up item: COc1ccc(-c2cc(-c3ccc(Cl)cc3)c(C#N)c(=O)n2Cc2ccc(C(=O)O)cc2)cc1
Completion: 112

###

Test system: RXF 393 renal
methodSummary: NCI-60 one-dose screen, 48 h
testSettings: 10 µM unless noted
About 83,000 compounds went through this panel and 20% of them were active in at least one assay; those are over-represented in the sample as a whole. Active and inactive are the calls of the source. Rule for the calls: active = growth percent below 10; inactive = the rest.
Classes to choose from: T = active, F = inactive

> print(dat)
                                 chemsmiles  qualitativelabel
1  Cc1nn(-c2ccccc2)c2ncnc(N/N=C/c3cccc(O)c3)c12                 F
2  O=S(=O)(Nc1cccc2ccccc12)c1ccc(-c2cnc(C3CC3)o2)cc1                 T
3  O=c1c2ccccc2nc(COc2ccccc2)n1NS(=O)(=O)c1ccc(Cl)cc1                 F
4  Nc1nc(Nc2ccccc2SSc2ccccc2Nc2nc(N)nc(-c3cccc(Br)c3)n2)nc(-c2cccc(Br)c2)n1                 F

Would you kindly look at the next entry?
Prompt: Call for entry CCOc1ccc(C(=O)Nc2ncc(Cc3ccc(F)cc3)s2)cc1 :
Completion: T

###

Tested on: T-47D breast
methodSummary: NCI-60 one-dose screen, 48 h (100 = growth as untreated, 0 = no growth, -100 = all killed)
testSettings: 10 µM unless noted
The panel holds about 83,000 compounds, 20% with a hit somewhere; the sample as a whole holds those more often. Active and inactive are the calls of the source. The calls were made as follows: active = growth percent below 10; inactive = the rest.
reportedMetric: growth

Check out these entries, answers already filled in.
> print(dat)
                                   compound  reportedmetric            result
1  CCCn1cnc2c(c1=N)C(c1ccc(Cl)cc1)c1sc3c(C)cccc3c1O2 (configuration not stated)          growth  45.9% (inactive)
2  O=C(CSc1nc2ccccc2c(=O)n1-c1ccccc1)Nc1ccc(-c2nc3ccc([N+](=O)[O-])cc3[nH]2)cc1          growth  89.1% (inactive)
3  COc1cc(Nc2c(C#N)cnn3cc(-c4cnn(CC(C)(C)O)c4)cc23)ccc1Cl          growth  45.1% (inactive)
4  C=C(C)[C@@H]1CC[C@]2(COCCCNCCC#N)CC[C@]3(C)[C@H](CC[C@@H]4[C@@]5(C)CC[C@H](OCCCNCCC#N)C(C)(C)[C@@H]5CC[C@]43C)[C@@H]12          growth  53.3% (inactive)

Prompt: # query: growth of entry C=C(C)[C@@H]1CC[C@]2(COP(=O)(OCC)OCC)CC[C@]3(C)[C@H](CC[C@@H]4[C@@]5(C)CCCNC(C)(C)[C@@H]5CC[C@]43C)[C@@H]12
Completion: 59.1% (inactive)

Prompt: Entry N#Cc1c(-c2cccs2)cc(-c2cnccn2)nc1SCC(=O)c1ccc(F)cc1 please
Completion: 106% (inactive)

Prompt: Do the same for CS(=O)(=O)Nc1cc(-c2ccc3ncc(C#N)c(NCc4ccccc4F)c3c2)cnc1Cl please
Completion: 3.78% (active)

Prompt: // same read-out, input: CCn1c(SCC(=O)Nc2cccc(C(=O)/C=C/c3cc(OC)c(OC)c(OC)c3)c2)nc2ccccc2c1=O
Completion: 49.3% (inactive)

###

growth values, listed per item
System: A549/ATCC NSCLC
methodSummary: NCI-60 one-dose screen, 48 h (100 = growth as untreated, 0 = no growth, -100 = all killed)
testSettings: 10 µM unless noted
Protocol: Growth inhibition of the A549/ATCC human Non-Small Cell Lung tumor cell line is measured as a screen for anti-cancer activity. Cells are grown in 96 well plates and exposed to the test compound for 48 hours. Compounds are tested at a single concentration, which is 10^-5 M for most compounds. The reported endpoint is percent growth (GI% or GIPRCNT), where numbers from 0 - 100% represent growth inhibition, and numbers from -100% - 0 represent cell death. […]
The panel holds about 83,000 compounds, 20% with a hit somewhere; the sample as a whole holds those more often.
Could you give me the number in %? Just the number is fine.

Below: 3 molecules and their reported growth.
> print(dat)
                                 chemsmiles  unitstext  numericresult
1  CC1(C)CC[C@]2(C(=O)O)CC[C@]3(C)C(=CC[C@@H]4[C@@]5(C)CC/C(=N\OCCC#N)C(C)(C)[C@@H]5CC[C@]43C)[C@@H]2C1          %           93.7
2  C=C(C)[C@@H]1CC[C@]2(C(=O)NCCCCCN(CCC#N)CCC#N)CC[C@]3(C)[C@H](CC[C@@H]4[C@@]5(C)CCC(=O)C(C)(C)[C@@H]5CC[C@]43C)[C@@H]12          %           90.9
3        Nn1c(N/N=C/c2nc3ccccc3s2)n[nH]c1=S          %           95.3

Prompt: What value of measured growth is listed for C#CCn1cccc1CNc1ccc(OC)cc1 ?
Completion: -47.6

Prompt: // next record CCc1nn2c(C)cc(C)nc2c1Cc1ccc(/C=C/CN2CCN(CCOCCOCCN3CCN(C/C=C/c4ccc(Cc5c(CC)nn6c(C)cc(C)nc56)cc4)CC3)CC2)cc1
Completion: 11.7

Prompt: Next molecule up: c1cn2c(ccc3nc(-c4cn[nH]c4)c4c(c32)CCCC4)n1
Completion: 62.5

Prompt: How about Cc1ccc(S(=O)(=O)N(CC[C@@H]2C[C@H]2c2cc3ccccc3o2)S(=O)(=O)c2ccc(C)cc2)cc1 ?
Completion: 94.9

Prompt: Param item: O=S(=O)(Oc1ccc(-c2nnc(Nc3ccccc3)s2)cc1)C(F)(F)C(F)(F)C(F)(F)C(F)(F)C(F)(F)C(F)(F)F
Completion: 101
